// provenance: patent US20230398130A1

tested on: ISC-enriched organoids; test: Primary screen, 384-well 2.5-D organoid differentiation (ENR+CD, 6 days, Target Selective Inhibitor Library, vs whole-plate median): ATP (CellTiter-Glo 3D, CTG); settings: strictly standardized mean difference; primary screen; 1st of the 4 dose lines of the treatment (dose not given)
Structures can show the parent of a compound that is named as a salt.
measurement type: SSMD.CTG
Returns: the value as a bare number; no unit string appended.

Summary for this compound, C=CC(=O)N1CCC[C@@H](n2nc(-c3ccc(Oc4ccccc4)cc3)c3c(N)ncnc32)C1 [Ibrutinib (PCI-32765)] : SSMD.CTG is −0.062

// SSMD.CTG lookup, compound = C=CCn1c(=O)c2cnc(Nc3ccc(N4CCN(C)CC4)cc3)nc2n1-c1cccc(C(C)(C)O)n1 [MK-1775] , result: 0.536

Recorded SSMD.CTG (compound Cl.Cl.O=S(=O)(NCCNC/C=C/c1ccc(Br)cc1)c1cccc2cnccc12 [H 89 2HCl] ): 1.039

So for Clc1ccc(N/N=C(\c2ccccc2)c2ccccn2)nc1 [JIB-04] , the logged SSMD.CTG turned out to be 0.552

// SSMD.CTG value for O=C(Nc1cc(C(F)(F)F)cc(C(F)(F)F)c1)c1cc(Cl)ccc1O [IMD 0354] : −0.019

Form: compound = CCc1c2c(nc3ccc(OC(=O)N4CCC(N5CCCCC5)CC4)cc13)-c1cc3c(c(=O)n1C2)COC(=O)[C@]3(O)CC [Irinotecan HCl Trihydrate] ; SSMD.CTG = −0.305

Lookup result for O=C(Nc1ccccc1)c1cc([N+](=O)[O-])ccc1Cl [GW9662] ; measured SSMD.CTG: 0.301

The compound listed as CC(C)c1ccc(NC(=O)Cn2cnc3c2c(=O)n(C)c(=O)n3C)cc1 [HC-030031] shows SSMD.CTG equal to 0.200

Entry CC(C)(C)c1cc(C(C)(C)C)c(NC(=O)c2c[nH]c3ccccc3c2=O)cc1O [Ivacaftor (VX-770)] — recorded SSMD.CTG = 0.431

Field SSMD.CTG (entry Oc1ccc2ccccc2c1SSc1c(O)ccc2ccccc12 [IPA-3] ) reads 0.818

----------
test system: ISC-enriched organoids; assay: Primary screen, 384-well 2.5-D organoid differentiation (ENR+CD, 6 days, Target Selective Inhibitor Library, vs whole-plate median): ATP (CellTiter-Glo 3D, CTG); conditions: dose 2.00 uM; vs plate median
Respond with Yes for Dose.FC.CTG (log 2 fold change, ATP) values of -0.2 and above, No for values below.

[Q] Is the recorded value of Dose.FC.CTG (log 2 fold change, ATP) equal to or greater than -0.2 for this compound? Cc1cc(C)nc(NS(=O)(=O)c2ccc(NC(=S)NC(=O)COc3ccc(Br)cc3Cl)cc2)n1 [ZCL278]
[A] No

[Q] Would you say O=C(O[C@H]1C[C@H]2CC[C@@H](C1)[N+]21CCCC1)C(O)(c1ccccc1)c1ccccc1 [Trospium chloride] shows Dose.FC.CTG (log 2 fold change, ATP) at minimum -0.2?
[A] Yes

[Q] I'd appreciate it if you could say whether C[C@H](Cn1cnc2c(N)ncnc21)OCP(=O)(O)O [Tenofovir] has Dose.FC.CTG (log 2 fold change, ATP) at least equal to -0.2.
[A] Yes

[Q] Does Nc1nc(N)c2nc(-c3cccc(O)c3)c(-c3cccc(O)c3)nc2n1 [TG100-115] have a reported Dose.FC.CTG (log 2 fold change, ATP) of at least -0.2?
[A] Yes

[Q] Given CC(C)(C)c1cc(/C=C(\C#N)C(N)=S)cc(C(C)(C)C)c1O [Tyrphostin AG 879] , state whether its Dose.FC.CTG (log 2 fold change, ATP) is at least -0.2.
[A] No

[Q] Kindly determine if Dose.FC.CTG (log 2 fold change, ATP) recorded for C[C@@H]1CCN(C(=O)CC#N)C[C@@H]1N(C)c1ncnc2[nH]ccc12 [Tofacitinib (CP-690550, Tasocitinib)] is above or exactly -0.2.
[A] Yes

[Q] Does CC(/C=C/C(=O)NO)=C\[C@@H](C)C(=O)c1ccc(N(C)C)cc1 [Trichostatin A (TSA)] have a reported Dose.FC.CTG (log 2 fold change, ATP) of at least -0.2?
[A] No

----------
system: ISC-enriched organoids; assay: Primary screen, 384-well 2.5-D organoid differentiation (ENR+CD, 6 days): basal lysozyme secretion (LYZ.NS); format: cell-based, murine; settings: Dose 0.40 uM; primary screen, FC vs plate median
measurement type: Dose.FC.LYZ.NS (log 2 fold change)
State just the number; it will be interpreted in log 2 fold change.

Per the records, this compound ( O=C(Nc1cccnc1)N1CCC(Cc2cccc(Oc3ccc(C(F)(F)F)cn3)c2)CC1 [PF-3845] ) has Dose.FC.LYZ.NS equal to −0.077

Just so you know, measured Dose.FC.LYZ.NS for COc1ccc(COc2ccc(Cc3cnc(N)nc3N)cc2OC)cc1 [GW2580] came out at 0.014

Reported Dose.FC.LYZ.NS ( CCOC(=O)CCNc1cc(N2CCc3ccccc3CC2)nc(-c2ccccn2)n1.Cl [GSK J4 HCl] ) = 0.050

The compound COc1cc(-n2c(=S)[nH]c3ccccc3c2=O)c(Cl)cc1Cl [Mdivi-1] showed Dose.FC.LYZ.NS equal to 0.156

Recorded Dose.FC.LYZ.NS (compound COc1ccccc1S(=O)(=O)Nc1ccc2c(c1)CN(C)C(=O)N2 [PFI-1 (PF-6405761)] ): 0.079

The recorded Dose.FC.LYZ.NS for entry S=C=Nc1cccc(NC(=S)NCCCCNC(=S)Nc2cccc(N=C=S)c2)c1 [MRS 2578] equals 0.036

Measured Dose.FC.LYZ.NS of O=C(/C=C\n1cnc(-c2cc(C(F)(F)F)cc(C(F)(F)F)c2)n1)N1CC(F)(F)C1 [KPT-276] : 0.086

// sample O=C(c1cn(Cc2cncn2Cc2ccc(Br)cc2)cc1-c1cccc2ccccc12)N1CCOCC1 [LB42708] , its Dose.FC.LYZ.NS was −0.140

Value of Dose.FC.LYZ.NS reported for the compound CC(C)(F)C[C@H](N[C@@H](c1ccc(-c2ccc(S(C)(=O)=O)cc2)cc1)C(F)(F)F)C(=O)NC1(C#N)CC1 [Odanacatib (MK-0822)] is 0.162

Sample C[C@H](NC(=O)[C@@H](O)c1cc(F)cc(F)c1)C(=O)N[C@@H]1C(=O)N(C)c2ccccc2-c2ccccc21 [LY411575] ; Dose.FC.LYZ.NS observed: −0.050

Just so you know, measured Dose.FC.LYZ.NS for O=C(O)CCc1ccc(NCc2cccc(Oc3ccccc3)c2)cc1 [GW9508] came out at 0.019

Form field Dose.FC.LYZ.NS, entry FC(F)(F)c1ccc(/C=C/c2nc(COc3ccc(CCCCn4ccnn4)cc3)co2)cc1 [Mubritinib (TAK 165)] : −0.194

// recorded Dose.FC.LYZ.NS for O=C(O)CNC(=O)c1c(O)c2ccccc2n(Cc2ccccc2)c1=O [IOX2] : 0.028

According to the records, this compound Cn1cc(/C=C2\C(=O)Nc3cccnc32)c2ccccc21 [GW441756] displays Dose.FC.LYZ.NS of 0.061

Form: compound = Nc1ncnc2c1c(-c1cccc(OCc3ccccc3)c1)cn2C1CC(CN2CCCC2)C1 (stereo not shown) [NVP-ADW742] ; Dose.FC.LYZ.NS = 0.172

compound CC(=O)c1cc([N+](=O)[O-])c(Sc2ccc(F)cc2F)s1 [P22077] , Dose.FC.LYZ.NS observed: −0.005

Documented Dose.FC.LYZ.NS of Cc1cc(Nc2cc(CN3CCOCC3)c3nc(C)c(Cc4ccc(Cl)cc4F)n3n2)n[nH]1 [LY2784544] : 0.004

The recorded Dose.FC.LYZ.NS for Cc1cnc(-c2cc(N3CCN(C(=O)CCS(C)(=O)=O)CC3)ncc2Cl)c(C)c1 [PF-5274857] is −0.029

For this compound ( C#Cc1cccc(Nc2ncnc3cc(OCCOC)c(OCCO)cc23)c1 [OSI-420] ), measured Dose.FC.LYZ.NS is −0.224

----------
test system: ISC-enriched organoids; experiment: Primary screen, 384-well 2.5-D organoid differentiation (ENR+CD, 6 days): carbachol-induced lysozyme secretion (LYZ.S); format: cell-based, murine; conditions: dose 0.08 uM; vs plate median
measurement type: Dose.FC.LYZ.S (log 2 fold change, carbachol-induced lysozyme secretion)
Number only, no unit.

Looking up Cc1cc(-c2ccc(CC(=O)Nc3ccc(-c4cccnc4)cc3)cc2)ccn1 , I see its Dose.FC.LYZ.S (log 2 fold change, carbachol-induced lysozyme secretion) listed as −0.242

Record COc1ccc2cc(-c3nc(-c4ccc([S+](C)[O-])cc4)[nH]c3-c3ccncc3)ccc2c1 (stereo not drawn) . Reported Dose.FC.LYZ.S (log 2 fold change, carbachol-induced lysozyme secretion): 0.018

Entry CS(=O)(=O)c1ccc(-c2cnc(N)c(C(=O)Nc3ccccc3)n2)cc1 — recorded Dose.FC.LYZ.S (log 2 fold change, carbachol-induced lysozyme secretion) = 0.130

The reported Dose.FC.LYZ.S (log 2 fold change, carbachol-induced lysozyme secretion) of the compound N#C[C@@H]1CCCN1C(=O)CNC12CC3CC(CC(O)(C3)C1)C2 was 0.099

What the record says about O=C(O[C@H]1C[C@H]2CC[C@@H](C1)[N+]21CCCC1)C(O)(c1ccccc1)c1ccccc1 [Trospium chloride] : Dose.FC.LYZ.S (log 2 fold change, carbachol-induced lysozyme secretion) is 0.119

So, c1ccc(NCc2ccc(CNc3ccccn3)cc2)nc1 ? Its Dose.FC.LYZ.S (log 2 fold change, carbachol-induced lysozyme secretion) was 0.296
